Kindly state IC50 for each of the entries shown.
Please answer in the form of a number followed by its unit of measurement.

Value (IC50, ROS1 (Homo sapiens (Human), UniProt P08922)) for record "C[C@H]1COC(=O)c2cnn3ccc(nc23)N[C@H](C)c2cc(F)ccc2S1" = 0.54 nM

Value (IC50, ROS1 (Homo sapiens (Human), UniProt P08922)) for record "C[C@H]1Nc2ccn3ncc(c3n2)C(=O)OCCSc2ccc(F)cc21" = 1.2 nM

Value (IC50, ROS1 (Homo sapiens (Human), UniProt P08922)) for record "C[C@@H]1c2cc(F)ccc2OCCOC(=O)c2cnn3ccc(nc23)N1C" = 4.8 nM

Value (IC50, ROS1 (Homo sapiens (Human), UniProt P08922)) for record "C[C@H]1Nc2ccn3ncc(c3n2)C(=O)OCC(F)(F)Oc2ccc(F)cc21" = 0.29 nM

----------
run_description: Pharmacokinetic analysis in rats
Assay type: in vivo, Male SD rats
conditions_used: male, SD, plasma; rat, IV, 1 mg/kg
readout_label: C0 (ng/mL)
Report only the number, with the unit ng/mL understood.

Input "C[C@H]1COC(=O)c2cnn3ccc(nc23)N[C@H](C)c2cc(F)ccc2O1" . Output C0: 217

----------
Tested on: Ba/F3 LMNA-NTRK3-G623R
run_description: Cell proliferation inhibition (CellTiter-Glo), Ba/F3 LMNA-NTRK3-G623R
Type: cell-based
conditions_used: Mus musculus, BaF3, 72 h, read-out: IC50 proliferation Ba/F3 LMNA-NTRK3-G623R
readout_label: IC50 (nM)
Report only the number, with the unit nM understood.

Input C[C@H]1CNC(=O)c2cnn3ccc(nc23)N[C@H](C)c2cc(F)ccc2O1 [TPX-0005, reference compound] . Output IC50: 9

----------
Kindly state half-life for each of the entries shown.
run_description: Pharmacokinetic analysis in rats
Assay type: in vivo, Male SD rats
conditions_used: male, SD, plasma; rat, PO, 5 mg/kg
Report only the number, with the unit h understood.

Input C[C@H]1CNC(=O)c2cnn3ccc(nc23)N[C@H](C)c2cc(F)ccc2O1 [TPX-0005, reference compound] . Output half-life: 3.55

Input "C[C@H]1COC(=O)c2cnn3ccc(nc23)N[C@H](C)c2cc(F)ccc2O1" . Output half-life: 1.84

----------
Kindly state IC50 for each of the entries shown.
experimental_system: TRKA (Homo sapiens (Human), UniProt P04629)
Sequence (P04629 33-796): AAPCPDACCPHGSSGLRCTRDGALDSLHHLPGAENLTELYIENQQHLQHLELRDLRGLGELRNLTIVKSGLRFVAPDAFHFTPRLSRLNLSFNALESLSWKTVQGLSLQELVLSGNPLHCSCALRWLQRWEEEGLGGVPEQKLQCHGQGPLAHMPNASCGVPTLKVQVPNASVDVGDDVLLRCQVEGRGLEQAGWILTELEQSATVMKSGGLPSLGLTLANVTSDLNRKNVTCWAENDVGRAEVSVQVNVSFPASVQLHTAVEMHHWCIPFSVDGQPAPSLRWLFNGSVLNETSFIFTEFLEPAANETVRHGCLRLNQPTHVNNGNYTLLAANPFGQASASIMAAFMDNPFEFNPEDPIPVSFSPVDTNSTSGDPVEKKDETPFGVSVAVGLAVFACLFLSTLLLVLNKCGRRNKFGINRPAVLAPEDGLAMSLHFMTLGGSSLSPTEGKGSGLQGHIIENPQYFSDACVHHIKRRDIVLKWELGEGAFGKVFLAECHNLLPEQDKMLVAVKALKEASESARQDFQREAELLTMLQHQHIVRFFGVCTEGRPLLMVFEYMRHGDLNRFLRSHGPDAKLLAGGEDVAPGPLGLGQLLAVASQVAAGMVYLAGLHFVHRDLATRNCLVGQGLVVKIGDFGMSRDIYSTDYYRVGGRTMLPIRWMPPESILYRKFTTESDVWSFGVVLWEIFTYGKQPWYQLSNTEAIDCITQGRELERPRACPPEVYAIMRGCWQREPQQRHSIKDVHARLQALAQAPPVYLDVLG
run_description: HTRF kinase activity assay, TRKA
Type: biochemical
conditions_used: 90 μM ATP
Please answer in the form of a number followed by its unit of measurement.

Value (IC50, TRKA (Homo sapiens (Human), UniProt P04629)) for record "CCc1cc2c(cc1N1CCC(N3CCOCC3)CC1)C(C)(C)c1[nH]c3cc(C#N)ccc3c1C2=O" = 60.4 nM

Value (IC50, TRKA (Homo sapiens (Human), UniProt P04629)) for record "C[C@H]1COC(=O)c2cnn3ccc(nc23)N[C@H](C)c2cc(F)ccc2O1" = 0.13 nM

Value (IC50, TRKA (Homo sapiens (Human), UniProt P04629)) for record "Cc1cc(Nc2ncc(Cl)c(Nc3ccccc3S(=O)(=O)C(C)C)n2)c(OC(C)C)cc1C1CCNCC1" = 182 nM

Value (IC50, TRKA (Homo sapiens (Human), UniProt P04629)) for record "C[C@H]1Oc2cc(cnc2N)-c2c(nn(C)c2C#N)CN(C)C(=O)c2ccc(F)cc21" = 6.2 nM
